Target: HLA-A*03:01
Test: IEDB peptide-MHC binding, purified MHC/competitive/fluorescence; filed as Kd, often an IC50 or EC50 that approximates it; bounds were set here for any values at or beyond the usual limits of such assays
Conditions: source organism: Homo sapiens
pKd: −log10 of the molar value.
The entries below come with measured pKd values attached.
Quantity: pKd

| Sequence Content | Result |
| --- | --- |
| SSDLRSWTF | ≤ 4.70 |
| WLGHPFTPV | ≤ 4.70 |

====

Molecular target: HLA-B*58:01
Test: IEDB peptide-MHC binding, purified MHC/competitive/fluorescence; filed as Kd, often an IC50 or EC50 that approximates it; bounds were set here for any values at or beyond the usual limits of such assays
Settings: source organism: Orthohantavirus andesense

| Sequence Content | Tested System | Kd |
| --- | --- | --- |
| QIQAGNFHW | HLA-B*58:01 | 2.2 nM |

====

Biological target: HLA-B*27:03
Test: IEDB peptide-MHC binding, purified MHC/direct/fluorescence; filed as Kd, often an IC50 or EC50 that approximates it; bounds were set here for any values at or beyond the usual limits of such assays
Details: source organism: Bacillus anthracis str. Sterne
pKd: −log10 of the molar value.

| Sequence Content | pKd |
| --- | --- |
| TTYVYTLPV | ≤ 4.70 |

====

Molecular target: HLA-A*24:02
Experiment: IEDB peptide-MHC binding, purified MHC/competitive/radioactivity; filed as Kd, often an IC50 or EC50 that approximates it; bounds were set here for any values at or beyond the usual limits of such assays
Settings: source organism: Dengue virus 3 Martinique/1243/1999

| Sequence Content | Kd, nM |
| --- | --- |
| WFFDLPLPW | 62.2 |

====

Molecular target: HLA-B*57:01
Assay: IEDB peptide-MHC binding, purified MHC/direct/fluorescence; filed as Kd, often an IC50 or EC50 that approximates it; bounds were set here for any values at or beyond the usual limits of such assays
Conditions: source organism: Mycobacterium tuberculosis C
pKd: −log10 of the molar value.

| Sequence Content | pKd |
| --- | --- |
| IIRTENRPL | ≤ 4.70 |

====

Target: HLA-A*26:01
Test: IEDB peptide-MHC binding, purified MHC/competitive/fluorescence; filed as Kd, often an IC50 or EC50 that approximates it; bounds were set here for any values at or beyond the usual limits of such assays
Conditions: source organism: Influenza A virus (A/red knot/Delaware/2561/1987(H10N5))
pKd: −log10 of the molar value.

| Sequence Content | pKd |
| --- | --- |
| VMTDGPANK | ≤ 4.70 |

====

Target: HLA-A*03:01
Assay: IEDB peptide-MHC binding, purified MHC/competitive/fluorescence; filed as Kd, often an IC50 or EC50 that approximates it; bounds were set here for any values at or beyond the usual limits of such assays
Conditions: source organism: Shigella boydii CDC 3083-94
pKd: −log10 of the molar value.
Quantity: pKd

| Sequence Content | Quantity | Result |
| --- | --- | --- |
| MAMTGLPQA | pKd | ≤ 4.70 |

====

Biological target: HLA-A*29:02
Test: IEDB peptide-MHC binding, purified MHC/direct/fluorescence; filed as Kd, often an IC50 or EC50 that approximates it; bounds were set here for any values at or beyond the usual limits of such assays
Details: source organism: Francisella tularensis subsp. tularensis FSC033

| Sequence Content | Unit Abbrev | Kd |
| --- | --- | --- |
| NTIEELSGY | nM | 28 |
